# TEST_SYSTEM: T1, recombinant human TL1A (human, UniProt O95150 71-251)
# T1 construct: homotrimer; biotinylated for SPR capture; the ELISA paragraphs say only 'recombinant TL1A'; also called TNFSF15
# T1 chain: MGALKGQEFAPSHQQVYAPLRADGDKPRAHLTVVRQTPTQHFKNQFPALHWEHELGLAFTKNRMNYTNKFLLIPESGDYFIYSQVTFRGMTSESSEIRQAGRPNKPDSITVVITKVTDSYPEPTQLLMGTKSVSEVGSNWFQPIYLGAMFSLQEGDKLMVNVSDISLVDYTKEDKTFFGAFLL
# ASSAY_NAME: competition ELISA vs bio-TL1A-0002
# Bioactivity relative to TL1A-0002 >= 1 fold gives satisfied, anything below gives not satisfied

{"BINDER": "TL1A-0081 (antibody, IgG1, V domains shown, IgG1/kappa variant of TL1A-0002) VH: QVQLVQSGAEVKKPGASVKVSCKASGYDFTYYGISWVRQAPGQGLEWMGWISAYNGNTHYARMLQGRVTMTTDTSTRTAYMELRSLRSDDTAVYYCARENYYGSGAYRGGMDVWGQGTTVTVSS VL: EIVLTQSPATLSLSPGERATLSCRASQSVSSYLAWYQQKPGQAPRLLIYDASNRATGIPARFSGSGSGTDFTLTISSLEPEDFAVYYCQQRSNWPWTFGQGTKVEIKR", "ASSIGNED_CATEGORY": "not satisfied"}
{"BINDER": "TL1A-0031 (antibody, IgG1, V domains shown, IgG1/kappa variant of TL1A-0002) VH: QVQLVQSGAEVKKPGASVKVSCKASGYDFTYYGISWVRQAPGQGLEWMGWISTYNGNTHYARMLQGRVTMTTDTSTRTAYMELRSLRSDDTAVYYCARENYYGSGDYRGGMDVWGQGTTVTVSS VL: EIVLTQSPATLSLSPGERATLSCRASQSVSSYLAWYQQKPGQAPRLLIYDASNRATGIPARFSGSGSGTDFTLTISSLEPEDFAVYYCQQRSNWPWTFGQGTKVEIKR", "ASSIGNED_CATEGORY": "satisfied"}
{"BINDER": "TL1A-0082 (antibody, IgG1, V domains shown, IgG1/kappa variant of TL1A-0002) VH: QVQLVQSGAEVKKPGASVKVSCKASGYDFTYYGISWVRQAPGQGLEWMGWISAYNGNTHYAQKLQGRVTMTTDTSTRTAYMELRSLRSDDTAVYYCARENYYGSGAYRGGMDVWGQGTTVTVSS VL: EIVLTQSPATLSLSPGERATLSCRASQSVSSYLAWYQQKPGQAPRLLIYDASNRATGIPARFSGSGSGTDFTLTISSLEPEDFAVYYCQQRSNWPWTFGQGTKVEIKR", "ASSIGNED_CATEGORY": "satisfied"}
{"BINDER": "TL1A-0096 (antibody, IgG1, V domains shown, IgG1/kappa variant of TL1A-0002) VH: QVQLVQSGAEVKKPGASVKVSCKASGYDFTYYGISWVRQAPGQGLEWMGWISTYNGNTHYARMLQGRVTMTTDTSTRTAYMELRSLRSDDTAVYYCAREVYYGSGAYRGGMDVWGQGTTVTVSS VL: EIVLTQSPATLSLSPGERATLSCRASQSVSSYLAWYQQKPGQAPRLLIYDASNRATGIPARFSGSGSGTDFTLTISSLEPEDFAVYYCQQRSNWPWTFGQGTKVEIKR", "ASSIGNED_CATEGORY": "satisfied"}
{"BINDER": "TL1A-0069 (antibody, IgG1, V domains shown, IgG1/kappa variant of TL1A-0002) VH: QVQLVQSGAEVKKPGASVKVSCKASGYDFTYHGISWVRQAPGQGLEWMGWISTYNGNTHYARMLQGRVTMTTDTSTRTAYMELRSLRSDDTAVYYCARENYYGSGAYRGGMDVWGQGTTVTVSS VL: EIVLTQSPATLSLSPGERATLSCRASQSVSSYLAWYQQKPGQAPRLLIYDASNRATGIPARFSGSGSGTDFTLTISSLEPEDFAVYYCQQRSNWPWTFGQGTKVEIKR", "ASSIGNED_CATEGORY": "not satisfied"}
{"BINDER": "TL1A-0147 (antibody, IgG1, V domains shown, IgG1/kappa variant of TL1A-0002) VH: QVQLVQSGAEVKKPGASVKVSCKASGYDFTYYGISWVRQAPGQGLEWMGWISTYNGNEHYAQKLQGRVTMTTDTSTRTAYMELRSLRSDDTAVYYCARENYYGSGAYRGGMDVWGQGTTVTVSS VL: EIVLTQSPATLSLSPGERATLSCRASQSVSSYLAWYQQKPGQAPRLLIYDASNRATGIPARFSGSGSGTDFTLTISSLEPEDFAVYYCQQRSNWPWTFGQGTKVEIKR", "ASSIGNED_CATEGORY": "satisfied"}
{"BINDER": "TL1A-0027 (antibody, IgG1, V domains shown, IgG1/kappa variant of TL1A-0002) VH: QVQLVQSGAEVKKPGASVKVSCKASGYDFTYYGISWVRQAPGQGLEWMGWISAYNGNTNYAQKLQGRVTMTTDTSTRTAYMELRSLRSDDTAVYYCARENYYGSGAYRGGMDVWGQGTTVTVSS VL: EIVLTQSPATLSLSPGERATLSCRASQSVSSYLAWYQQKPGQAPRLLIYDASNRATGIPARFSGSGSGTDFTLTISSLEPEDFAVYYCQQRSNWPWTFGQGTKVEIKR", "ASSIGNED_CATEGORY": "satisfied"}
{"BINDER": "TL1A-0033 (antibody, IgG1, V domains shown, IgG1/kappa variant of TL1A-0002) VH: QVQLVQSGAEVKKPGASVKVSCKASGYDFTYYGISWVRQAPGQGLEWMGWISTYNGNTHYARMLQGRVTMTTDTSTRTAYMELRSLRSDDTAVYYCARENYYGSGAFRGGMDVWGQGTTVTVSS VL: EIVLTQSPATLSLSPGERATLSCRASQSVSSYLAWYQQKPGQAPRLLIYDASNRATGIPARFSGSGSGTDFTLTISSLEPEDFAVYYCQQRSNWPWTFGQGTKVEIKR", "ASSIGNED_CATEGORY": "not satisfied"}

The reported measurements were obtained from patent US20240059799A1.
